# Tested on: Human immunodeficiency virus 1
# Assay Method Text: Antiviral activity against HIV1 harboring reverse transcriptase K103N mutant infected in human […] cells assessed as protection against virus-induced cytopathic effect measured on day 5 post infection by MTT assay
# Assay type: functional, cell-based
# Conditions Used: Human immunodeficiency virus 1, 120 h
pEC50: −log10 of the molar value.

{"Compound": "Cc1cc(C)cc(S(=O)(=O)c2c(C(=O)N[C@@H](C)C(=O)NCc3ccncn3)[nH]c3ccc(Cl)cc23)c1", "pEC50": 9.22}
{"Compound": "COc1cccc(F)c1CNC(=O)c1[nH]c2ccc(Cl)cc2c1S(=O)(=O)c1cc(C)cc(C)c1", "pEC50": 9.22}
{"Compound": "Cc1cc(C)cc(S(=O)(=O)c2c(C(=O)N[C@@H](C)C(=O)NCc3ccco3)[nH]c3ccc(Cl)cc23)c1", "pEC50": 9.22}
{"Compound": "Cc1cc(C)cc(S(=O)(=O)c2c(C(=O)NCC(=O)NC(C)c3ccccc3)[nH]c3ccc(Cl)cc23)c1 (racemic)", "pEC50": 6.68}
{"Compound": "Cc1cc(C)cc(S(=O)(=O)c2c(C(=O)Nc3cc(C#N)ccn3)[nH]c3ccc(Cl)cc23)c1", "pEC50": 9.22}
{"Compound": "Cc1cc(C)cc(S(=O)(=O)c2c(C(=O)NCC(=O)NCCc3cccs3)[nH]c3ccc(Cl)cc23)c1", "pEC50": 5.87}
{"Compound": "Cc1cc(C)cc(S(=O)(=O)c2c(C(=O)N[C@H](C)C(=O)N[C@@H](C)c3ccncc3)[nH]c3ccc(Cl)cc23)c1", "pEC50": 6.69}
{"Compound": "Cc1cc(C#N)cc(C)c1Oc1nc(Nc2ccc(C#N)cc2)nc(N)c1Br", "pEC50": 9.15}

---

# Tested Target: Human immunodeficiency virus type 1 reverse transcriptase (Human immunodeficiency virus 1, UniProt Q72547, Y181I)
# Assay Method Text: Inhibition of HIV1 reverse transcriptase p66 Y181I mutant associated RNA dependent DNA polymerase activity expressed in Escherichia coli assessed as reduction in [3H]dTTP incorporation using poly(rA)/oligo(dT) as template/primer by scintillation counting analysis
Metric Name: log10(IC50) (log10 of the value in µM)

{"Structure Smiles": "Cc1cc(C)cc(S(=O)(=O)c2c(C(=O)N[C@H](C)C(=O)N[C@H](C)c3ccncc3)[nH]c3ccc(Cl)cc23)c1", "log10(IC50)": 0.76}
{"Structure Smiles": "Cc1cc(C)cc(S(=O)(=O)c2c(C(=O)NCc3ccc4nc(N)[nH]c4c3)[nH]c3ccc(Cl)cc23)c1", "log10(IC50)": -0.55}
{"Structure Smiles": "Cc1cc(C)cc(S(=O)(=O)c2c(C(=O)NCc3cccc(N)c3)[nH]c3ccc(Cl)cc23)c1", "log10(IC50)": -1.19}
{"Structure Smiles": "Cc1cc(C)cc(S(=O)(=O)c2c(C(=O)N[C@@H](C)C(=O)NCc3ccco3)[nH]c3ccc(Cl)cc23)c1", "log10(IC50)": 1.15}
{"Structure Smiles": "Cc1cc(C)cc(S(=O)(=O)c2c(C(=O)N[C@@H](C)C(=O)NCc3ccncn3)[nH]c3ccc(Cl)cc23)c1", "log10(IC50)": 0.50}

---

# Assay Method Text: Selectivity index, ratio of CC50 for human MT4 cells to EC50 for HIV1 NL4-3 infected in human MT4 cells
# Assay type: toxicity, cell-based
# Conditions Used: read-out: Ratio CC50/EC50
Metric Name: selectivity ratio

{"Molecule": "Cc1cc(C)cc(S(=O)(=O)c2c(C(=O)NC(C)C(=O)NCc3ccncc3)[nH]c3ccc(Cl)cc23)c1 (racemic)", "Metric Name": "selectivity ratio", "Result": 102000}
{"Molecule": "Cc1cc(C)cc(S(=O)(=O)c2c(C(=O)NCc3cccc(F)c3F)[nH]c3ccc(Cl)cc23)c1", "Metric Name": "selectivity ratio", "Result": "> 73000"}
{"Molecule": "COc1cccc(F)c1CNC(=O)c1[nH]c2ccc(Cl)cc2c1S(=O)(=O)c1cc(C)cc(C)c1", "Metric Name": "selectivity ratio", "Result": "> 83200"}
{"Molecule": "Cc1cc(C)cc(S(=O)(=O)c2c(C(=O)NCC(=O)NC(C)c3ccccc3F)[nH]c3ccc(Cl)cc23)c1 (racemic)", "Metric Name": "selectivity ratio", "Result": "> 38300"}
{"Molecule": "Cc1cc(C)cc(S(=O)(=O)c2c(C(=O)NC(C)c3ccccc3F)[nH]c3ccc(Cl)cc23)c1 (racemic)", "Metric Name": "selectivity ratio", "Result": "> 73600"}

---

# Assay Method Text: Selectivity index, ratio of CC50 for human MT4 cells to EC50 for HIV1 NL4-3 infected in human MT4 cells
# Type: toxicity, cell-based
# Conditions Used: read-out: Ratio CC50/EC50
Consider the following compounds and their measured selectivity ratio readings.

{"Compound": "Cc1cc(C)cc(S(=O)(=O)c2c(C(=O)NC(C)C(=O)NCc3ccccc3F)[nH]c3ccc(Cl)cc23)c1 (racemic)", "selectivity ratio": 23300}
{"Compound": "Cc1cc(C)cc(S(=O)(=O)c2c(C(=O)NCC(=O)NCc3ccco3)[nH]c3ccc(Cl)cc23)c1", "selectivity ratio": "> 83400"}
{"Compound": "Cc1cc(C)cc(S(=O)(=O)c2c(C(=O)NCC(=O)NCCc3cccs3)[nH]c3ccc(Cl)cc23)c1", "selectivity ratio": 9480}
{"Compound": "Cc1cc(C)cc(S(=O)(=O)c2c(C(=O)NC(c3ccc(Cl)cc3)C3CC3)[nH]c3ccc(Cl)cc23)c1 (racemic)", "selectivity ratio": "> 359"}

---

Consider the following molecules and their measured selectivity ratio readings.
# Assay Method Text: Selectivity index, ratio of CC50 for human MT4 cells to EC50 for HIV1 NL4-3 infected in human MT4 cells
# Type: toxicity, cell-based
# Conditions Used: read-out: Ratio CC50/EC50

{"Molecule": "Cc1cc(C)cc(S(=O)(=O)c2c(C(=O)NC(C)C(=O)NC(C)c3ccccc3F)[nH]c3ccc(Cl)cc23)c1 (racemic)", "selectivity ratio": "> 25400"}
{"Molecule": "Cc1cc(C)cc(S(=O)(=O)c2c(C(=O)NC(C)C(=O)NCCc3cccs3)[nH]c3ccc(Cl)cc23)c1 (racemic)", "selectivity ratio": 52800}
{"Molecule": "Cc1cc(C)cc(S(=O)(=O)c2c(C(=O)NC(C)C(=O)NC(C)c3ccccc3)[nH]c3ccc(Cl)cc23)c1 (racemic)", "selectivity ratio": "> 36900"}
{"Molecule": "Cc1cc(C)cc(S(=O)(=O)c2c(C(=O)NCc3n[nH]c4ccccc34)[nH]c3ccc(Cl)cc23)c1", "selectivity ratio": "> 84500"}
{"Molecule": "Cc1cc(C)cc(S(=O)(=O)c2c(C(=O)NCC(=O)NC(C)c3ccccc3)[nH]c3ccc(Cl)cc23)c1 (racemic)", "selectivity ratio": "> 49000"}
{"Molecule": "Cc1cc(C)cc(S(=O)(=O)c2c(C(=O)NCc3ccc4nc(N)[nH]c4c3)[nH]c3ccc(Cl)cc23)c1", "selectivity ratio": "> 9810"}
{"Molecule": "Cc1cc(C)cc(S(=O)(=O)c2c(C(=O)NCC(=O)NCc3ccncn3)[nH]c3ccc(Cl)cc23)c1", "selectivity ratio": "> 81400"}

---

Consider the following compounds and their measured selectivity ratio readings.
# Assay Method Text: Selectivity index, ratio of CC50 for human MT4 cells to EC50 for HIV1 NL4-3 infected in human MT4 cells
# Assay type: toxicity, cell-based
# Conditions Used: read-out: Ratio CC50/EC50

{"Compound": "Cc1cc(C)cc(S(=O)(=O)c2c(C(=O)NC(C)C(=O)NCc3ccncn3)[nH]c3ccc(Cl)cc23)c1 (racemic)", "selectivity ratio": "> 46800"}
{"Compound": "Cc1cc(C)cc(S(=O)(=O)c2c(C(=O)NC(C)c3ccco3)[nH]c3ccc(Cl)cc23)c1 (racemic)", "selectivity ratio": "> 78200"}
{"Compound": "Cc1cc(C)cc(S(=O)(=O)c2c(C(=O)NCC(=O)NC(C)c3ccncc3)[nH]c3ccc(Cl)cc23)c1 (racemic)", "selectivity ratio": "> 78400"}
{"Compound": "Cc1cc(C)cc(S(=O)(=O)c2c(C(=O)NC(C)c3cc(F)cc(F)c3)[nH]c3ccc(Cl)cc23)c1 (racemic)", "selectivity ratio": "> 82800"}

---

# Assay Method Text: Cytotoxicity against human MT4 cells assessed as cell viability by MTT assay
# Format: cell-based
Please note: CC50 exactly at 20 µM is not satisfied. Only values below 20 µM get satisfied.

{"Molecule": "Cc1cc(C)cc(S(=O)(=O)c2c(C(=O)NCc3cccc(N)c3)[nH]c3ccc(Cl)cc23)c1", "Group": "not satisfied"}
{"Molecule": "Cc1cc(C)cc(S(=O)(=O)c2c(C(=O)NCC(=O)NCCn3c(C)cnc3[N+](=O)[O-])[nH]c3ccc(Cl)cc23)c1", "Group": "not satisfied"}
{"Molecule": "Cc1cc(C)cc(S(=O)(=O)c2c(C(=O)NC(C)C(=O)NCc3ccco3)[nH]c3ccc(Cl)cc23)c1 (racemic)", "Group": "not satisfied"}
{"Molecule": "Cc1cc(C)cc(S(=O)(=O)c2c(C(=O)NCC(=O)NC(C)c3ccncc3)[nH]c3ccc(Cl)cc23)c1 (racemic)", "Group": "not satisfied"}
{"Molecule": "Cc1cc(C)cc(S(=O)(=O)c2c(C(=O)NC(c3ccc(Cl)cc3)C3CC3)[nH]c3ccc(Cl)cc23)c1 (racemic)", "Group": "not satisfied"}
{"Molecule": "Cc1cc(C)cc(S(=O)(=O)c2c(C(=O)NCC(=O)NCCc3cccs3)[nH]c3ccc(Cl)cc23)c1", "Group": "not satisfied"}
{"Molecule": "Cc1cc(C)cc(S(=O)(=O)c2c(C(=O)NC(C)C(=O)NC(C)c3ccccc3F)[nH]c3ccc(Cl)cc23)c1 (racemic)", "Group": "satisfied"}
{"Molecule": "Cc1cc(C)cc(S(=O)(=O)c2c(C(=O)NC(CF)c3ccccc3)[nH]c3ccc(Cl)cc23)c1 (racemic)", "Group": "not satisfied"}
{"Molecule": "Cc1cc(C)cc(S(=O)(=O)c2c(C(=O)NCc3ccc4nc(N)[nH]c4c3)[nH]c3ccc(Cl)cc23)c1", "Group": "satisfied"}
{"Molecule": "Cc1cc(C)cc(S(=O)(=O)c2c(C(=O)NC(C)C(=O)NC(C)c3ccncc3)[nH]c3ccc(Cl)cc23)c1 (racemic)", "Group": "not satisfied"}
